study-system: MAPK14 (human)
quantity: IC50

Worked cases, IC50 given:
>>> reported_result("N#Cc1ccc(COc2ccn(Cc3cccc(F)c3)c(=O)c2Br)cc1")
"25 to 100 µM"
>>> reported_result("O=c1c(Br)c(O)ccn1Cc1ccc(O)cc1")
"> 100 µM"
>>> reported_result("C=CCn1c(C)cc(OCc2ccc(F)cc2F)c(Br)c1=O")
"< 1 µM"
>>> reported_result("O=c1[nH]ccc(OCc2ccccc2)c1Br")
"> 100 µM"
>>> reported_result("C#Cc1c(OCc2ccccc2)ccn(Cc2cccc(F)c2)c1=O")
"1 to 25 µM"

Query compound follows.
Given Cc1cc(OCc2ccc(F)cc2F)c(Br)c(=O)n1-c1ccc(CNC(=O)CO)cc1 , state its recorded IC50.
< 1 µM

###

The following compounds are shown together with reported IC50 values.
study-system: MAPK14 (human)
assay-procedure: Inhibition of MAPK14 Kinase Activity
condition-info: THP.1 monocytic

Field: example entries. Status: answers known.
>>> reported_result("Cc1cc(OCc2cccc(Cl)c2)cc(=O)n1Cc1ccccc1")
"> 100000 nM"
>>> reported_result("Cc1cc(OCc2ccc(F)cc2F)c(Cl)c(=O)n1-c1c(F)cc(N2CCN(C)CC2)cc1F")
"< 1000 nM"
>>> reported_result("Cc1cc(OCc2ccc(F)cc2F)c(Br)c(=O)n1CCN1CCOCC1")
"25000 to 100000 nM"

Recorded IC50 of Cc1cc(OCc2ccc(F)cc2F)c(Cl)c(=O)n1-c1cc(CN)ccc1F , please.
< 1000 nM

Look up IC50 for this compound: Cc1cnc(Cn2c(C)cc(OCc3ccc(F)cc3F)c(Cl)c2=O)cn1
< 1000 nM

Tell me the measured IC50 of Cc1cccc(COc2ccn(Cc3cccc(F)c3)c(=O)c2Br)c1 , please.
< 1000 nM

###

Measurement record for MAPK14 (human) (UniProt Q16539); quantity recorded: IC50.

# count of solved cases: 5
>>> reported_result("N#Cc1ccccc1Cn1ccc(OCc2ccccc2)c(Br)c1=O")
"1 to 25 µM"
>>> reported_result("O=c1c(Br)c(OCc2ccccc2)ccn1Cc1ccccc1C(F)(F)F")
"> 100 µM"
>>> reported_result("O=c1cc(OCc2ccccc2)ccn1Cc1ccc(OC(F)(F)F)cc1")
"25 to 100 µM"
>>> reported_result("C=Cc1c(OCc2ccccc2)ccn(Cc2ccccc2)c1=O")
"25 to 100 µM"
>>> reported_result("O=c1cc(OCc2ccccc2Cl)ccn1Cc1ccccc1")
"25 to 100 µM"

Look up IC50 with MAPK14 (human) (UniProt Q16539) for this compound: Cc1cc(OCc2ccc(F)cc2F)c(Br)c(=O)n1Cc1ccc(C(=O)NCCCN)cc1
Sequence (Q16539 whole entry, looked up): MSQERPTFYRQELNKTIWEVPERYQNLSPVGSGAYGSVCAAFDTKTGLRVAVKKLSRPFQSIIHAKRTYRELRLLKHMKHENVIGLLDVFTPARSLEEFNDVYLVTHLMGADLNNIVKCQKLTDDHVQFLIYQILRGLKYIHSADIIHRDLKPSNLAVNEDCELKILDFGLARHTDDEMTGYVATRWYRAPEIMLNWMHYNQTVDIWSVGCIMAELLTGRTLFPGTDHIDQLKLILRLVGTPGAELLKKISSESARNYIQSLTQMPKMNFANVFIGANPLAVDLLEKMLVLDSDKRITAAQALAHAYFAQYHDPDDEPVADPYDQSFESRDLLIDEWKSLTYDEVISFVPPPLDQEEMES
< 1 µM

###

System: MAPK14 (human) | Read-out: pIC50
pIC50: −log10 of the molar value.

Some solved cases for reference:
>>> reported_result("COCCNC(=O)c1cccc(-n2c(C)cc(OCc3ccc(F)cc3F)c(Br)c2=O)c1")
"> 6.00"
>>> reported_result("COc1ccc(C(=O)N(C)C)cc1-n1c(C)cc(OCc2ccc(F)cc2F)c(Br)c1=O")
"> 6.00"

Below: the item to evaluate.
Find pIC50 (MAPK14 (human)) for the entry Cc1cc(OCc2ccc(F)cc2F)c(Br)c(=O)n1-c1cccc(CNC(N)=O)c1
4.60 to 6.00
